assaySystem: T1, Human CD98 ECD with C-terminal His-tag (human, UniProt P08195 105-529)
T1 construct: also called huCD98 ECD; recombinant human CD98 extracellular domain
T1 sequence: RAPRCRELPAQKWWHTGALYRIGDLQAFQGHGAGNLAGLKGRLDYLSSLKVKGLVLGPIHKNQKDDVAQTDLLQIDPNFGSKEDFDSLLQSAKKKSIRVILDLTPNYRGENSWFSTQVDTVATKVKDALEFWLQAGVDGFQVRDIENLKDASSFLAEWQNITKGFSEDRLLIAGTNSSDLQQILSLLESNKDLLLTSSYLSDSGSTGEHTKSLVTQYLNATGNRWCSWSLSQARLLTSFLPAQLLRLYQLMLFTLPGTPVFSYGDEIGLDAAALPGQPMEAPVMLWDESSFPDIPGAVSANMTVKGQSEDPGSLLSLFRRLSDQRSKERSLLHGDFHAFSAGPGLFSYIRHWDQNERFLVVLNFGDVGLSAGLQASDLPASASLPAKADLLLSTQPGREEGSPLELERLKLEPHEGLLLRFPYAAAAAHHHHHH
procedureSummary: SPR Biacore, anti-Fc capture of mAb, CD98 ECD analyte
// reported kon per item
Give the number first and the unit second.

Some solved cases for reference:
Recombinant anti-CD98 chimeric antibody chAb8 (antibody, human IgG1, V domains shown) VH: EVQLVESGGGLVQPGRSLKLSCAASGFTFSDYAMAWVRQAPKKGLEWVASIIYDGRGTYYRDSVKGRFTISRDNAKSTLYLQMDSLRSEDTATYYCARQGDGTYYYWGYFDYWGQGVMVTVSS VL: DIVMTQSPSSLAVSAGETVTINCKSSQSLLSSGNQKNYLAWYQQKPGQSPKLLIYWASTRQSGVPDRFIGSGSGTDFTLTINSVQAEDLAIYYCQQYYDTPYTFGAGTKLELK	67000 M⁻¹ s⁻¹
Recombinant anti-CD98 chimeric antibody chAb6 (antibody, human IgG1, V domains shown) VH: QVQLKESGPGLAQPSQTLSLTCTVSGFSLSTYGVIWLRQPPGKGLEWMGVIWTNGNTNYNSTLKSRLSISRDTSESQVYLQMNSLQTEDTATYYCARHYYDGAYYYGYFDYWGQGVMVTVSS VL: DIVMTQTPSSQAVSAGEKVTMSCKSSQSLLYSENKKNYLAWYQQKPGQSPKLLIYWASTRESGVPDRFIGSGSGTDFTLTISSVQAEDLAVYYCQQYYYFPYTFGAGTKLELK	110000 M⁻¹ s⁻¹
Recombinant anti-CD98 chimeric antibody chAb10 (antibody, human IgG1, V domains shown) VH: EVQLVESGGGLVQPGRSLKLSCAASGFTFSDYAMAWVRQAPKKSLEWVATIIYDGRGTYCRDSVKGRFTISRDNAKSTLYLQMDSLRSEDTATYYCARQGDGTYHYWGYFDYWGQGVMVTVSS VL: DIVMTQSPSSLAVSAGETVTINCKSSQSLLSSGNQKNYLAWYQQKPGQSPKLLIYWASTRQSGVPDRFIGSGSGTDFTLTISSVQAEDLAIYYCQQYYDTPYTFGAGTKVDLK	100000 M⁻¹ s⁻¹
Recombinant anti-CD98 chimeric antibody chAb3 (antibody, human IgG1, V domains shown) VH: EVKLVESGGGLVQPGNSLRLSCATSGFTFIDYYMSWVRQSPGKALEWLGFIRNKANGYTTEYSASVKGRFTISRDNSQSILYLQMDTLRAEDSATYYCTRDRPAWFVYWGQGTLVTVSA VL: DIVMSQSPSSLAVSVGEKVTMSCKSSQSLLYSSNQKNYLAWYQQKPGQSPKLLIYWASTRESGVPDRFTGSGSGTDFTLTFSSVRAEDLAVYYCQQYYSYPYTFGGGTKLEIK	160000 M⁻¹ s⁻¹

Then this binder:
Consider the binder shown here: Recombinant anti-CD98 chimeric antibody chAb12 (antibody, human IgG1, V domains shown) VH: EVQLVESGGGLVQPGRSLKLSCAASGFTFSDYAMAWVRQAPKKGLEWVASIIYDGRGTYYRDSVKGRFTISRDNAKSTLYLQMDSLRSEDTATYYCARQGDGTYYYWGSFDYWGQGVMVTVSS VL: DIVMTQSPSSLAVSAGETVTINCKSSQSLLSSGNQKNYLAWYQQKPGQSPKLLIYWASTRQSGVPDRFIGSGSGTDFTLTISSVQAEDLAIYHCQQYYDTPYTFGAGTKLELK What is its recorded kon?
54000 M⁻¹ s⁻¹

src = patent US20200147235A1
